// reported viability, T/C for each item listed
System: Rh18 complex spheroid viability, percent test/control
Assay: Anticancer human tumor Rh18 cell line growth inhibition [Asc];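 note: spheroids exposed to compound for 7 days; 100% = DMSO vehicle control wells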
Conditions: second compound 0.01 µM; first compound 0.1 µM; hits give low values

{"columns": ["COMPOUND", "viability, T/C (%)"],
 "data": [
  ["NC1CCC(NC2CC2c2ccccc2)CC1 (stereo unspecified) + CNC(C)C(=O)NC1CN(S(=O)(=O)c2cccc(S(=O)(=O)N3CCC4CCC(C(=O)NC(c5ccccc5)c5ccccc5)N4C(=O)C(NC(=O)C(C)NC)C3)c2)CCC2CCC(C(=O)NC(c3ccccc3)c3ccccc3)N2C1=O", 61.5],
  ["COc1c(OCCCN2CCOCC2)ccc2c3n(c(=NC(=O)c4cnc(N)nc4)nc12)CCN3 + CNC(C)C(=O)NC1CN(S(=O)(=O)c2cccc(S(=O)(=O)N3CCC4CCC(C(=O)NC(c5ccccc5)c5ccccc5)N4C(=O)C(NC(=O)C(C)NC)C3)c2)CCC2CCC(C(=O)NC(c3ccccc3)c3ccccc3)N2C1=O", 5.19],
  ["C#Cc1c(F)ccc2cc(O)cc(-c3ncc4c(N5CC6CCC(C5)N6)nc(OCC56CCCN5CC(F)C6)nc4c3F)c12 (stereo unspecified) + CNC(C)C(=O)NC1CN(S(=O)(=O)c2cccc(S(=O)(=O)N3CCC4CCC(C(=O)NC(c5ccccc5)c5ccccc5)N4C(=O)C(NC(=O)C(C)NC)C3)c2)CCC2CCC(C(=O)NC(c3ccccc3)c3ccccc3)N2C1=O", 60.7],
  ["C=CC(=O)N1CCN(c2nc(=O)n(-c3c(C)ccnc3C(C)C)c3nc(-c4c(O)cccc4F)c(F)cc23)C(C)C1 (stereo unspecified) + CNC(C)C(=O)NC1CN(S(=O)(=O)c2cccc(S(=O)(=O)N3CCC4CCC(C(=O)NC(c5ccccc5)c5ccccc5)N4C(=O)C(NC(=O)C(C)NC)C3)c2)CCC2CCC(C(=O)NC(c3ccccc3)c3ccccc3)N2C1=O", 63.6],
  ["C=C(F)C(=O)N1CCN(c2nc(OCC3CCCN3C)nc3c2CCN(c2cccc4cccc(Cl)c24)C3)CC1CC#N (stereo unspecified) + CNC(C)C(=O)NC1CN(S(=O)(=O)c2cccc(S(=O)(=O)N3CCC4CCC(C(=O)NC(c5ccccc5)c5ccccc5)N4C(=O)C(NC(=O)C(C)NC)C3)c2)CCC2CCC(C(=O)NC(c3ccccc3)c3ccccc3)N2C1=O", 70.1],
  ["O=C(c1cc(Cc2n[nH]c(=O)c3ccccc23)ccc1F)N1CCN(C(=O)C2CC2)CC1 + CNC(C)C(=O)NC1CN(S(=O)(=O)c2cccc(S(=O)(=O)N3CCC4CCC(C(=O)NC(c5ccccc5)c5ccccc5)N4C(=O)C(NC(=O)C(C)NC)C3)c2)CCC2CCC(C(=O)NC(c3ccccc3)c3ccccc3)N2C1=O", 48.4]
]}
